Where do the numbers come from? From PubChem BioAssay.

Give measured inhibition for each item. Keep answers brief.
TESTED_TARGET: L-lactate dehydrogenase (Plasmodium falciparum (isolate CDC / Honduras))
EXPERIMENT_NOTES: PfLDH activity inhibition – cell lysate, 3D7 strain, counter-screen for P. falciparum growth inhibition project (AID 2304);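 also: 0% = vehicle and 100% = reference inhibitor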
CONDITION: P. falciparum 3D7 crude extract, LDH APAD/NBT absorbance; at 2 µM; active compounds read high
Numbers only, in %.

Look over these answered cases.
CCc1cc(-c2onc(C)c2-c2cc3ccccc3o2)c(O)cc1OC : -2
Cc1cc(C(=O)Nc2ccc3c(c2)CCN3C2CCN(Cc3cccc4cc[nH]c34)C2)no1 (stereo not drawn) : 1
COc1ccc2ncc(F)c([C@@H](O)CN3CCC(NCc4ccc5c(c4)NCCS5)CC3)c2n1 : -3
COCCNCc1ccc(-c2cccc(CNC3CCN(Cc4ccccc4)CC3)c2)cc1 : 0
c1ccc2c(Nc3ccc(OCCOCCOc4ccc(Nc5c6ccccc6nc6ccccc56)cc4)cc3)c3ccccc3nc2c1 : 7

Record inhibition per entry; entries follow.
1. COc1cccc(CCN(Cc2ccccc2-c2ccc(CNC3CC(C)(C)NC(C)(C)C3)cc2)C(=O)NC2CCCCC2)c1
2. O=[N+]([O-])c1cccc(-c2nc(-c3ccc(Br)cc3)[nH]c2-c2ccc(Br)cc2)c1
3. COc1ccc(CCN(C)CCCN2CCC(NC(=O)c3cccc4c(=O)c5ccccc5[nH]c34)CC2)cc1OC

Output line:
[-1, 2, 2]
